assay: in vivo; details: BALB/c nude, mouse, in vivo, iv, total radioactivity, T/P Tumor/Pancreas ratio
OUTCOME_MEASURE: tissue to tissue ratio at 24 h

C[C@@H](O)[C@H](NC(=O)[C@@H]1CSSC[C@H](NC(=O)[C@@H](Cc2ccccc2)NC(=O)CCCCCCCNC(=O)[C@H](CCCCNC(=O)c2cccc(NC(=O)N[C@@H]3CN(C4CCCCC4)c4ccccc4N(CC(=O)C(C)(C)C)C3=O)c2)NC(=O)CN2CCN(CC(=O)O)CCN(CC(=O)O)CCN(CC(=O)O)CC2)C(=O)N[C@@H](Cc2ccc(O)cc2)C(=O)N[C@H](Cc2c[nH]c3ccccc23)C(=O)N[C@@H](CCCCN)C(=O)N[C@@H]([C@@H](C)O)C(=O)N1)C(=O)O [Compound I-61, DOTA-K(Z360)-Aoc-f[CYwKTC]T-OH] ... 16

Consider the additional molecule presented here.
Entry C[C@@H](O)[C@H](NC(=O)[C@@H]1CSSC[C@H](NC(=O)[C@@H](Cc2ccccc2)NC(=O)CCOCCOCCOCCOCCOCCOCCNC(=O)[C@H](CCCCNC(=O)c2cccc(NC(=O)N[C@@H]3CN(C4CCCCC4)c4ccccc4N(CC(=O)C(C)(C)C)C3=O)c2)NC(=O)CN2CCN(CC(=O)O)CCN(CC(=O)O)CCN(CC(=O)O)CC2)C(=O)N[C@@H](Cc2ccc(O)cc2)C(=O)N[C@H](Cc2c[nH]c3ccccc23)C(=O)N[C@@H](CCCCN)C(=O)N[C@@H]([C@@H](C)O)C(=O)N1)C(=O)O [Compound I-40, DOTA-K(Z360)-PEG6-f[CYwKTC]T-OH] ; tissue to tissue ratio at 24 h = 59

// data source = patent US20260248972A1
